- assay_method_text: Quantitative High-Throughput drug screen in 47 multiple myeloma cell lines against the NCATS MIPE library collection: KMM1_JCRB cell viability assay (AID 1918960); note: nearly all actives have a fitted effect of over 30% in size
- recorded_conditions: KMM1 myeloma viability, CellTiter-Glo ATP luminescence, 48 h; series mostly up to 45.8 µM
Results filed as inconclusive are left out. Calls of active or inactive are those of the source. Calls come from the whole dose curve; as a rule, active = well fitted cell-killing curve with a large enough effect; inconclusive = small, poorly fitted or top-dose-only effect, or effect the other way; inactive = no such curve, though single readings can be large or run the other way.
Pick from active, inactive when you respond.

Below, 3 compounds whose answers are already recorded.
[[record]]
compound = "S=c1nc[nH]c2nc[nH]c12"
assigned_label = "active"

[[record]]
compound = "CN1C(C(=O)Nc2ccccn2)=C(O)c2sccc2S1(=O)=O"
assigned_label = "inactive"

[[record]]
compound = "N[C@@H](Cc1cc(I)c(Oc2cc(I)c(O)c(I)c2)c(I)c1)C(=O)O"
assigned_label = "inactive"


q: Please let me know the test result on file for Cc1nccn1CC1CCc2c(c3ccccc3n2C)C1=O (centres undefined) .
a: inactive

---

- Tested on: MKL-1
- assay_method_text: qHTS assay to identify novel small-molecules to repurpose for Merkel cell carcinoma treatment (AID 1296009); note: nearly all actives have a fitted effect of over 60% in size
- recorded_conditions: MCC and control cell lines, CellTiter-Glo viability, 72 h; series mostly up to 46 µM
Results filed as inconclusive are left out. Activity calls are given as the source filed them. The call rests on the fitted dose curve; in most records, active means well fitted inhibition curve with a large enough effect; inconclusive means small, poorly fitted or top-dose-only effect; inactive means flat fitted curve, though single readings scatter.
Pick from true for active, false for inactive when you respond.

Below, 5 molecules whose answers are already recorded.
[[record]]
molecule = "S=c1nc[nH]c2nc[nH]c12"
target_system = "MKL-1"
assigned_label = "false"

[[record]]
molecule = "O=C(NC(Cc1cc(=O)[nH]c2ccccc12)C(=O)O)c1ccc(Cl)cc1 (centres undefined)"
target_system = "MKL-1"
assigned_label = "false"

[[record]]
molecule = "Cc1cc(Cl)ccc1OCCCC(=O)NO"
target_system = "MKL-1"
assigned_label = "true"

[[record]]
molecule = "C=CCc1cc(OC)c(O)c(C(=O)NCCO)c1"
target_system = "MKL-1"
assigned_label = "false"

[[record]]
molecule = "NNc1nncc2ccccc12"
target_system = "MKL-1"
assigned_label = "false"


q: Please let me know the test result on file for `CC(=O)NC[C@H]1CN(c2ccc(N3CCOCC3)c(F)c2)C(=O)O1` .
a: false

q: Please let me know the test result on file for `N[C@@H](Cc1cc(I)c(Oc2cc(I)c(O)c(I)c2)c(I)c1)C(=O)O` .
a: false

q: Please let me know the test result on file for Cc1cccc(CN2CCN(C(c3ccccc3)c3ccc(Cl)cc3)CC2)c1 (centres undefined) .
a: false

q: Please let me know the test result on file for `O=C(O)c1cccc(-c2noc(-c3ccccc3F)n2)c1` .
a: false

q: Please let me know the test result on file for `O=C(O)c1cn(-c2ccc(F)cc2)c2cc(N3CCNCC3)c(F)cc2c1=O` .
a: false

q: Please let me know the test result on file for `CC(=O)Nc1ccc(O)cc1` .
a: false

q: Please let me know the test result on file for `c1ccc2[nH]c(-c3cscn3)nc2c1` .
a: false

---

- assay_method_text: Quantitative High-Throughput drug screen in 47 multiple myeloma cell lines against the NCATS MIPE library collection: MMM1_PLB cell viability assay (AID 1918976); note: potency is the fitted concentration of half-maximal effect; nearly all actives have a fitted effect of over 35% in size
- recorded_conditions: MMM1 myeloma cells viability, CellTiter-Glo, 48 h; series mostly up to 45.8 µM
Inconclusive results are not listed. Activity calls are given as the source filed them. The call rests on the fitted dose curve; in most records, active means well fitted cell-killing curve with a large enough effect; inconclusive means small, poorly fitted or top-dose-only effect, or effect the other way; inactive means no such curve, though single readings can be large or run the other way.
Field: Potency. Provide a value for each of the molecules that follow.

Check out these entries, answers already filled in.
[[record]]
sample_smiles = "CC(C)c1ccc2c(c1)c(SC(C)(C)C)c(CC(C)(C)C(=O)O)n2Cc1ccc(Cl)cc1"
observed_result = "2640 nM (active)"

[[record]]
sample_smiles = "Nc1nc(Cl)nc2c1ncn2[C@H]1C[C@H](O)[C@@H](CO)O1"
observed_result = "4690 nM (active)"


Now for the molecule whose Potency we want.
Measured Potency, `Cc1cc(=O)c2c(O)c3c(O)cc(=O)c4c3c3c(cc(O)c1c23)C(C)(C)C=4O` : 372 nM (active)

---

- assay_method_text: Quantitative High-Throughput drug screen in 47 multiple myeloma cell lines against the NCATS MIPE library collection: KMS12PE_JCRB cell viability assay (AID 1918972); note: nearly all actives have a fitted effect of over 30% in size
- recorded_conditions: KMS12PE myeloma viability, CellTiter-Glo ATP, 48 h; series mostly up to 45.8 µM
Records with an inconclusive call do not appear. The source made the active and inactive calls. The call rests on the fitted dose curve; in most records, active means well fitted cell-killing curve with a large enough effect; inconclusive means small, poorly fitted or top-dose-only effect, or effect the other way; inactive means no such curve, though single readings can be large or run the other way. Non-standard residues stand in square brackets, D forms with d. Residues, ends and D or L forms follow the SMILES beside them. *: point of attachment. Sta = CC(C)C[C@H](N)[C@@H](O)CC(=O)O; Isovaleryl = CC(C)CC(=O)*
Pick from True = active, False = inactive when you respond.

Below, 10 compounds whose answers are already recorded.
[[record]]
compound = "C[C@H](Cn1cnc2c(N)ncnc21)OCP(=O)(O)O"
assigned_label = "False"

[[record]]
compound = "Cc1cccc(C)c1OCC(=O)N[C@@H](Cc1ccccc1)[C@@H](O)C[C@H](Cc1ccccc1)NC(=O)[C@H](C(C)C)N1CCCNC1=O"
assigned_label = "True"

[[record]]
compound = "NC(=NCc1ccccc1)NC(=O)c1nc(Cl)c(N)nc1N"
assigned_label = "True"

[[record]]
compound = "O=C1CCc2ccc(OCCCCN3CCN(c4cccc(Cl)c4Cl)CC3)cc2N1"
assigned_label = "True"

[[record]]
compound = "COc1ccc2cc([C@H](C)C(=O)O)ccc2c1"
assigned_label = "False"

[[record]]
compound = "Clc1ccc(C(Cn2ccnc2)OCc2ccc(Sc3ccccc3)cc2)c(Cl)c1 (centres undefined)"
assigned_label = "True"

[[record]]
compound = "Cc1c(C(=O)NN2CCCCC2)nn(-c2ccc(Cl)cc2Cl)c1-c1ccc(Cl)cc1"
assigned_label = "True"

[[record]]
compound = "CN1CCC(=C2c3ccccc3CCc3sccc32)CC1"
assigned_label = "True"

[[record]]
compound = "Nc1nc(Cl)nc2c1ncn2[C@H]1C[C@H](O)[C@@H](CO)O1"
assigned_label = "True"

[[record]]
compound = "COCCCOc1ccnc(CS(=O)c2nc3ccccc3[nH]2)c1C (centres undefined)"
assigned_label = "False"


q: Please let me know the test result on file for `COCCCN1CCC(NC(=O)c2cc(Cl)c(N)c3c2OCC3)CC1` .
a: True

q: Please let me know the test result on file for CC(C)CC(=O)N[C@H](C(=O)N[C@H](C(=O)N[C@@H](CC(C)C)[C@@H](O)CC(=O)N[C@@H](C)C(=O)N[C@@H](CC(C)C)[C@@H](O)CC(=O)O)C(C)C)C(C)C (Isovaleryl-VV[Sta]A[Sta]-OH) .
a: False

q: Please let me know the test result on file for `CCOC(=O)c1c(C)n(C)c2ccc(O)cc12` .
a: False

q: Please let me know the test result on file for `COc1cc(OC)c(C(=O)CCCN2CCCC2)c(OC)c1` .
a: False

q: Please let me know the test result on file for `COC1=C(OC)C(=O)C(CCCCCCCCCCO)=C(C)C1=O` .
a: True

---

- assay_method_text: Quantitative High-Throughput drug screen in 47 multiple myeloma cell lines against the NCATS MIPE library collection: KMS28PE_JCRB cell viability assay (AID 1918983); note: nearly all actives have a fitted effect of over 35% in size; note: potency is the fitted concentration of half-maximal effect
- recorded_conditions: KMS28PE multiple myeloma viability, CellTiter-Glo ATP, 48 h; series mostly up to 45.8 µM
Records with an inconclusive call do not appear. Active and inactive are the calls of the source. The call rests on the fitted dose curve; in most records, active means well fitted cell-killing curve with a large enough effect; inconclusive means small, poorly fitted or top-dose-only effect, or effect the other way; inactive means no such curve, though single readings can be large or run the other way. Peptide text beside a SMILES is read from it.
endpoint: Potency

Check out these entries, answers already filled in.
[[record]]
molecule = "CNC[C@H](O)c1ccc(O)c(O)c1"
endpoint = "Potency"
observed_result = "13.6 µM (active)"

[[record]]
molecule = "COC(=O)[C@H](Cc1ccccc1)NC(=O)[C@@H](N)CC(=O)O (H-Asp-Phe-OMe)"
endpoint = "Potency"
observed_result = "inactive"

[[record]]
molecule = "CCOc1cc(CC(=O)N[C@@H](CC(C)C)c2ccccc2N2CCCCC2)ccc1C(=O)O"
endpoint = "Potency"
observed_result = "inactive"

[[record]]
molecule = "CCCCC(CC)COC(=O)C(C#N)=C(c1ccccc1)c1ccccc1 (stereo not drawn)"
endpoint = "Potency"
observed_result = "inactive"

[[record]]
molecule = "O=P(O)(O)C(O)(Cn1ccnc1)P(=O)(O)O"
endpoint = "Potency"
observed_result = "inactive"

[[record]]
molecule = "CCCCCCCCCCCCCCCCCCCCCCO"
endpoint = "Potency"
observed_result = "inactive"

[[record]]
molecule = "Nc1cccc2c1CN(C1CCC(=O)NC1=O)C2=O (stereo not drawn)"
endpoint = "Potency"
observed_result = "0.171 µM (active)"

[[record]]
molecule = "N[C@@H](Cc1cc(I)c(Oc2cc(I)c(O)c(I)c2)c(I)c1)C(=O)O"
endpoint = "Potency"
observed_result = "inactive"

[[record]]
molecule = "CC(C)C[C@H](NC(=O)[C@H](Cc1ccccc1)NC(=O)c1cnccn1)B(O)O"
endpoint = "Potency"
observed_result = "0.0093 µM (active)"

[[record]]
molecule = "COc1c2occc2cc2ccc(=O)oc12"
endpoint = "Potency"
observed_result = "inactive"


Please give Potency, item by item, for the list that follows.
1. O=Nc1c(-c2c(O)[nH]c3cc(Br)ccc23)[nH]c2ccccc12
2. COc1ccc(C2(C#N)CCC(C(=O)O)CC2)cc1OC1CCCC1 (stereo not drawn)
3. C[Se]CCC(N)C(=O)O (stereo not drawn)
4. CNC[C@@H](O)[C@@H](O)[C@H](O)[C@H](O)CO
5. CN1CCC(=C2c3ccccc3CCc3sccc32)CC1

a:
1: 23.5 µM (active); 2: inactive; 3: inactive; 4: inactive; 5: inactive

Please give Potency, item by item, for the list that follows.
1. C=C(c1ccc(C(=O)O)cc1)c1cc2c(cc1C)C(C)(C)CCC2(C)C
2. c1cnc2cc3c(cc2n1)C1CNCC3C1

a:
1: inactive; 2: inactive

Measured Potency, CC(C)[N+]1(C)[C@@H]2CC[C@H]1CC(OC(=O)C(CO)c1ccccc1)C2 (stereo partly drawn) : inactive
